Conditions: human
measured.property: Hepatotoxicity (choleostasis)
I'd appreciate a reply containing only the number, no unit.

Reference set, count: 10
- molecule: "COc1ccc2[nH]c([S+]([O-])Cc3ncc(C)c(OC)c3C)nc2c1 (centres undefined)"
  Hepatotoxicity (choleostasis): 3
- molecule: "CN(C)c1ccc(O)c2c1C[C@H]1C[C@H]3[C@H](N(C)C)C(O)=C(C(N)=O)C(=O)[C@@]3(O)C(O)=C1C2=O"
  Hepatotoxicity (choleostasis): 2
- molecule: "C[C@]12CC[C@@H]3c4ccc(O)cc4CC[C@H]3[C@@H]1CC[C@@H]2O"
  Hepatotoxicity (choleostasis): 1
- molecule: "Cc1ccc(NC(=O)c2ccc(CN3CCN(C)CC3)cc2)cc1Nc1nccc(-c2cccnc2)n1"
  Hepatotoxicity (choleostasis): 0
- molecule: "C[C@H]1c2cccc(O)c2C(=O)C2=C(O)[C@]3(O)C(=O)C(C(N)=O)=C(O)[C@@H](N(C)C)[C@@H]3[C@@H](O)[C@@H]21.O"
  Hepatotoxicity (choleostasis): 3
- molecule: "CN1CCc2cccc3c2[C@H]1Cc1ccc(O)c(O)c1-3"
  Hepatotoxicity (choleostasis): 0
- molecule: "O=C(O)[C@@H](S)[C@@H](S)C(=O)O"
  Hepatotoxicity (choleostasis): 0
- molecule: "O=c1[nH]c(=O)n([C@H]2C[C@H](O)[C@@H](CO)O2)cc1F"
  Hepatotoxicity (choleostasis): 7
- molecule: "O=C1CN=C(c2ccccc2Cl)c2cc([N+](=O)[O-])ccc2N1"
  Hepatotoxicity (choleostasis): 0
- molecule: "CCc1c2c(nc3ccc(OC(=O)N4CCC(N5CCCCC5)CC4)cc13)-c1cc3c(c(=O)n1C2)COC(=O)[C@]3(O)CC"
  Hepatotoxicity (choleostasis): 2

Req: Looking for the measured Hepatotoxicity (choleostasis) of `CCN(CCCc1ccccc1)CCCc1ccccc1` , can you help?
Resp: 0

Req: Would you mind telling me what Hepatotoxicity (choleostasis) value was observed for `Cc1onc(-c2c(F)cccc2Cl)c1C(=O)N[C@@H]1C(=O)N2[C@@H]1SC(C)(C)[C@@H]2C(=O)O` ?
Resp: 20

Req: Looking for the measured Hepatotoxicity (choleostasis) of NC(=O)c1cnccn1 [PYRAZINAMIDE] , can you help?
Resp: 8

* * *

Examples of compounds with documented Hepatotoxicity (acute) follow.
Conditions: human, serum
When you answer, write just the number.

# count of solved cases: 3
- compound: "CCCc1cc(C(N)=S)ccn1 [PROTIONAMIDE]"
  Hepatotoxicity (acute): 7
- compound: "[H]/N=C(\\N/C(=N/[H])NCCCCCCNC(=N)NC(=N)Nc1ccc(Cl)cc1)Nc1ccc(Cl)cc1"
  Hepatotoxicity (acute): 1
- compound: "CCNC(=O)[C@@H]1CCCN1C(=O)[C@H](CCCNC(=N)N)NC(=O)[C@H](CC(C)C)NC(=O)[C@@H](CC(C)C)NC(=O)[C@H](Cc1ccc(O)cc1)NC(=O)[C@H](CO)NC(=O)[C@H](Cc1c[nH]c2ccccc12)NC(=O)[C@H](Cc1c[nH]cn1)NC(=O)[C@@H]1CCC(=O)N1 [LEUPROLIDE]"
  Hepatotoxicity (acute): 0

Req: For the compound NS(=O)(=O)c1cc(C2(O)NC(=O)c3ccccc32)ccc1Cl (stereo not drawn) , what Hepatotoxicity (acute) is on record?
Resp: 2

Req: What does the data say about its Hepatotoxicity (acute)? Entry: `C/C=C(/CC)C(=O)NC(N)=O`
Resp: 1

Req: What does the record list as Hepatotoxicity (acute) for `CCN[C@@H](C)Cc1cccc(C(F)(F)F)c1` ?
Resp: 0

* * *

Recorded Hepatotoxicity (moderate) for the following compounds
Details: human, serum
A bare number is all that is needed in reply.

Here is how some compounds turned out for Hepatotoxicity (moderate).
- compound: "CC[C@@H](CO)NC(=O)[C@@H]1C=C2c3cccc4c3c(cn4C)C[C@H]2N(C)C1 [METHYSERGIDE]"
  quantitative.readout: 1
- compound: "CC(=O)NCCOC(=O)C(Oc1cccc(C(F)(F)F)c1)c1ccc(Cl)cc1 (stereo unspecified) [HALOFENATE]"
  quantitative.readout: 1
- compound: "CN(C)CCCN1c2ccccc2C(C)(C)c2ccccc21"
  quantitative.readout: 1
- compound: "O=C(O[C@@H]1C[C@@H]2C[C@H]3C[C@H](C1)N2CC3=O)c1c[nH]c2ccccc12"
  quantitative.readout: 1
- compound: "CCN(CC)CCNc1ccc(CO)c2sc3ccccc3c(=O)c12"
  quantitative.readout: 1

Query compound follows.
Req: # lookup: Hepatotoxicity (moderate) of `O=C1Cc2cc(CCN3CCN(c4nsc5ccccc45)CC3)c(Cl)cc2N1`
Resp: 1

* * *

Conditions: human, Liver
measured.property: Hepatotoxicity (cytolytic)
# respond with the number and nothing more

# count of solved cases: 4
- compound: "CSCC[C@H](N)C(=O)O"
  Hepatotoxicity (cytolytic): 1
- compound: "Nc1ncn([C@@H]2O[C@H](CO)[C@@H](O)[C@H]2O)c(=O)n1"
  Hepatotoxicity (cytolytic): 1
- compound: "CCO.CN1CCC[C@H]1c1cccnc1"
  Hepatotoxicity (cytolytic): 1
- compound: "OC(CCN1CCCCC1)(c1ccccc1)C1CCCCC1 (stereo not given)"
  Hepatotoxicity (cytolytic): 1

Req: Any idea what Hepatotoxicity (cytolytic) was measured for `Cc1ncc(CO)c(CO)c1O` ?
Resp: 1

* * *

Settings: human, serum
A collection of compounds and their measured Hepatotoxicity (moderate)
Number only, no unit.

- compound: "COCc1c(C(=O)OC(C)C)ncc2[nH]c3ccc(OCc4ccccc4)cc3c12 [ABECARNIL]"
  Hepatotoxicity (moderate): 1

Req: I would be grateful if you could share the reported Hepatotoxicity (moderate) for CN1CCN(C(=S)Nc2ccc(Nc3ccc([N+](=O)[O-])cc3)cc2)CC1 [AMOCARZINE] .
Resp: 1

Req: Entry under review: O=C(O)C[C@H](O)C[C@H](O)/C=C/c1c(C2CC2)nc2ccccc2c1-c1ccc(F)cc1 [PITAVASTATIN] . Reported Hepatotoxicity (moderate)?
Resp: 1

Req: Report Hepatotoxicity (moderate) for `CCOC(=O)[C@H](CCc1ccccc1)N[C@@H](C)C(=O)N(CC(=O)O)C1Cc2ccccc2C1` please.
Resp: 1

Req: Look up Hepatotoxicity (moderate) for this compound: CC(/C=N/NC(=N)N)=N\NC(=N)N [MITOGUAZONE]
Resp: 1

* * *

Measured Hepatotoxicity (acute) by item
Settings: human, serum
*1 amine or outer side, *2 acyl side, *3 side chain or, on linkers, in order; H or OH if unused. Where a SMILES comes first, the peptide text is derived from it. Bridges are numbered along the chain shown (N, C = ends). [ ]: non-standard residue; d: D form. The star is where a group is joined. ξ: configuration not given here. X2 = N=C1NCCC([C@H](N[*:1])C(=O)[*:2])N1; ΔAla(Z-3-ureido) = NC(=O)N/C=C(\N)C(=O)O; ξβ3hOrn = NCCCC(N)CC(=O)*; Dap = NC[C@H](N)C(=O)O

Recorded results for 3 molecules are shown here.
- molecule: "CCCN(CCC)S(=O)(=O)c1ccc(C(=O)O)cc1"
  Hepatotoxicity (acute): 1
- molecule: "CN1CCC(=C2c3ccccc3C=Cc3ccccc32)CC1"
  Hepatotoxicity (acute): 5
- molecule: "C[C@H]1COc2c(C3(N)CC3)c(F)cc3c(=O)c(C(=O)O)cn1c23"
  Hepatotoxicity (acute): 0

Req: Name the reported Hepatotoxicity (acute) value associated with the molecule `CCN[C@@H]1C[C@H](N)[C@@H](O[C@H]2OC(CN)=CC[C@H]2N)[C@H](O)[C@H]1O[C@H]1OC[C@](C)(O)[C@H](NC)[C@H]1O`
Resp: 0

Req: For the molecule shown here, `O=C(O)c1cccnc1Nc1cccc(C(F)(F)F)c1` , give the reported Hepatotoxicity (acute).
Resp: 4

Req: May I ask what Hepatotoxicity (acute) has been recorded for C[C@@H]1NC(=O)[C@@H](N)CNC(=O)[C@H](C2CCNC(=N)N2)NC(=O)/C(=C/NC(N)=O)NC(=O)[C@H](CNC(=O)CC(N)CCCN)NC1=O.N=C1NCCC([C@@H]2NC(=O)/C(=C/NC(N)=O)NC(=O)[C@H](CNC(=O)CC(N)CCCN)NC(=O)[C@H](CO)NC(=O)[C@@H](N)CNC2=O)N1 (stereo partly drawn) [CAPREOMYCIN] (H-[Dap]S[Dap](ξβ3hOrn)[ΔAla(Z-3-ureido)][X2]; lactam 1-C) ?
Resp: 0

Req: // Hepatotoxicity (acute) lookup, key: NCc1ccccc1CC(=O)N[C@@H]1C(=O)N2C(C(=O)O)=C(CSc3nnnn3CC(=O)O)CS[C@H]12 [CEFORANIDE]
Resp: 2

Req: What value of measured Hepatotoxicity (acute) is listed for `CC(C)(N)C(=O)N[C@H](COCc1ccccc1)C(=O)N1CCC2(CC1)CN(S(C)(=O)=O)c1ccccc12` ?
Resp: 0

* * *

# key: entry, value: Hepatotoxicity (moderate)
Conditions: human, serum
Response field accepts a number only; no unit should be typed.

Previously resolved entries follow.
- molecule: "CC(C)[C@@H](CC[C@@H](C)[C@H]1CC[C@H]2[C@@H]3[C@H](O)C[C@H]4C[C@@H](NCCCNCCCCN)CC[C@]4(C)[C@H]3CC[C@]12C)OS(=O)(=O)O"
  Hepatotoxicity (moderate): 1
- molecule: "COC(=O)Nc1nc2cc(C(=O)c3ccc(F)cc3)ccc2[nH]1"
  Hepatotoxicity (moderate): 1
- molecule: "O=[As](O)(O)c1ccc(NCCNc2ccc([As](=O)(O)O)cc2)cc1"
  Hepatotoxicity (moderate): 1
- molecule: "CCC(=O)NS(=O)(=O)c1ccc(-c2c(-c3ccccc3)noc2C)cc1"
  Hepatotoxicity (moderate): 1

Req: Please report the recorded Hepatotoxicity (moderate) for O=P1(NCCCl)OCCCN1CCCl (stereo unspecified) [IFOSFAMIDE] .
Resp: 3

Req: Report Hepatotoxicity (moderate) for C=CCOc1ccccc1OCC(O)CNC(C)C (stereo unspecified) please.
Resp: 1
